Data origin, for the record: BindingDB's records for doi:10.7270/Q2RJ4GVG

- Test Target: Isoform 2 of Nuclear receptor ROR-alpha (Alpha-2) (Homo sapiens, UniProt P35398)
- Sequence (P35398 as listed by the source): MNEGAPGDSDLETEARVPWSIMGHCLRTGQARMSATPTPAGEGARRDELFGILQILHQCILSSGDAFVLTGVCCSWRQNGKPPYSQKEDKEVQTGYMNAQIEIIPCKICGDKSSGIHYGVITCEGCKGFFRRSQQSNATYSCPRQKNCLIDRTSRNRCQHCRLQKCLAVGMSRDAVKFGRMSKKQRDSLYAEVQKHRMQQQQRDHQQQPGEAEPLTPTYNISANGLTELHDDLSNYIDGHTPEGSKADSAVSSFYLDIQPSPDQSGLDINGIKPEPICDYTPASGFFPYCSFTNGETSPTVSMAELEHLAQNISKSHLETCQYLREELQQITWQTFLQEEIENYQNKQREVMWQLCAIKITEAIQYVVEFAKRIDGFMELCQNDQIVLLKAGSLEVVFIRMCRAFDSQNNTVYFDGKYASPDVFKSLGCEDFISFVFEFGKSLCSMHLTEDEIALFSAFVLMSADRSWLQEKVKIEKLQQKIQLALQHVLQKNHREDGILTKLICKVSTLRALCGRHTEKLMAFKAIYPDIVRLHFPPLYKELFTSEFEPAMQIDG
- Protocol: activators of RORA nuclear receptor, dose response, cell-based, CHO-K1, Gal4-RORA LBD, luciferase luminescence (AID 681)
Readout Kind: pEC50
As a rule, pEC50 stands for the negative log10 of the concentration, concentration in M.

1) COc1ccc(C(=O)Nc2cc(C)on2)cc1
5.98
2) CCOc1cc(N2CCOCC2)c(OCC)cc1NS(=O)(=O)c1ccc(Cl)s1
5.58
3) Cc1cccn2cc(-c3ccccc3)nc12 [8-methyl-2-phenyl-imidazo[1,2-a]pyridine]
6.25
4) COc1cccc(-c2noc(-c3cccnc3)n2)c1
6.07
5) CC1=CCC(COC(=O)Nc2ccccc2)CC1 (configuration not stated)
5.82
6) Cn1cccc1C(=O)OCc1csc(-c2ccccc2)n1
6.66

Continue with the compound presented below.
## Input Note down pEC50 recorded for CCCCOc1ccc(-c2nnn(CC(=O)NCc3ccco3)n2)cc1
## Output 5.29
